test: soluble on expression in E. coli; label from the status in PepcDB or PDB records
Quantity kind: soluble on expression in E. coli

Illustrative cases are given below, each with its answer.
MAHHHHHHMLSIGMTAMDTEGDVTQMELSALLVHIERCERLLRHPTLLSRLPDEGETIRSRHALYVAERSRREVGGDASSSRKENDAVEGSVRQVERQISQMTLSTEEKSEKTATMPMECHASLNTDGWTVGAGGKAVESYEDVARAVGEKHRHSRIPVEMIVRQTFGGSLCEAEIQRMLCDVPPNFFLTHDETISMQRKLLSEERLEALTRLRNQRHAEL = not soluble
MESLAAKVVERLNRAESAAELRFCHDELARELRRCLAPEQMKQLAGDVVCVHEAILRRAFFLAERETMKRSVGIRPPAWCWYVMGSIGRREPTIWTDQDHGILFDCPEEEEAACYEFIRHMAAVGVDMLHEAGYPYCSGYVMATNKRWAQSVRGWEQQLSSYLDSGWPNDIRFLLIAMDMRPLYGETELAEEGRRMLFSAVAKRPPLLAVRPAWVRRYRVKVPNGGWRAPTVS = not soluble
MDLEISEKIKAYRQVMSAKSPSDAALTWNLFDLPNNMELARFFSTLSKEEMAKFEQCVFVDGQDPKTYIKMHKMVESTATIALSEEIENKRTILVAEPNRGGVSGHEGEMASTSSGFRDGYHPCMDHTSYAEGLFTESEKAWELERLLKLQKEIAEAKSKIVKQKKPSIKSA = not soluble
GSHMNPLTQAVPKCQRWEKLQNSRCVCKMPYECGPSLDVCAQDERSKRILPLTVCKMHVLHCQGRNYTLTGRDSCTLPASAEKACGACPLWGKCDAESSKCVCREASECEEEGFSICVEVNGKEQTMSECEAGALRCRGQSISVTSIRPCAAETQ = soluble
MGSDKIHHHHHHMETMFDTLLQLPLFQGLCHEDFTSILDKVKLHFIKHKAGETIIKSGNPCTQLCFLLKGEISIVTNAKENIYTVIEQIEAPYLIEPQSLFGMNTNYASSYVAHTEVHTVCISKAFVLSDLFRYDIFRLNYMNIVSNRAQNLYSRLWDEPTLDLKSKIIRFFLSHCEKPQGEKTFKVKMDDLARCLDDTRLNISKTLNELQDNGLIELHRKEILIPDAQKLL = soluble

input: Field request: soluble on expression in E. coli | item: `MYNALYLYCSEYKYEDSIMTISIRLPSDLETRLNNLAAKTGRTKSFYLREIIERGIEEAEDYYLASQVRERVRKGEGTFYSSEEVRKELGLDD`
output: not soluble

input: Quick one: soluble on expression in E. coli for `MGSDKIHHHHHHKVEGNGNIITKEISVDNYSEIELGGNIEYSGNNFWGNRSNKKFPVFKYTHGRSASLKITIDENLFPLLSIKSNNGRLAIRIQDGTRIKPTQYVIEGSSKTLKYLKTSGPMDFEAQNAFSEDQLEIKISGSSDVKFPHNVKLRLGEFSVSGSGDLVFEDLDCKNLTSKVSGSGDITLKGKADEARYSVSGSGDIKAYDLSVNDLSCSVSGSGDARVYAKDNMNLSVSGSGDIRYKGPANVNKSKSGSGSIQGAN` ?
output: not soluble

input: # lookup: soluble on expression in E. coli of `MTEQMWIEKLGLEAHPEGGYFKQTNKSEQLIPTKRGERALHTAILFLLNTESPSHFHRLKADELWFFHDGQPLTVHCIFPDGTYQAVQLGKDLVQGQQLSFSVPAGTIFGSTVATGFALVSCVVTPGFEFEDFELFTQAELLNDYPQHSEIIQHLAYRELPLEHHHHHH`
output: soluble

input: So what does the record say about soluble on expression in E. coli for `MDAKVAFSPHSDANGRLDEIGADIDTAQSSVLFSLAFLGQMTRGAIGPALGRALERPEVHVMGIADAEVRAGNLGLNVLTPDNRRRVVRAAALTGNVPPPFLTEPSGLAGVDGNQRGTRMHHKFVVLDFDKPTARVYLGSYNFSNPADDENGENLVVVRDRTVATSYMIEALRMYDHYVFRVLEHHHHHH` ?
output: soluble

input: Entry under review: `MGHHHHHHSHNTALVLCPFKDSGCKHRCPKLAMARHVEESVKPHLAMMCALVSRQRQELQELRRELEELSVGSDGVLIWKIGSYGRRLQEAKAKPNLECFSPAFYTHKYGYKLQVSAFLNGNGSGEGTHLSLYIRVLPGAFDNLLEWPFARRVTFSLLDQSDPGLAKPQHVTETFHPDPNWKNFQKPGTWRGSLDESSLGFGYPKFISHQDIRKRNYVRDDAVFIRAAVELPRKILS` . Reported soluble on expression in E. coli?
output: not soluble

input: Name the reported soluble on expression in E. coli value associated with the sequence `MLDLIQTRRDLHQIPEIGLEEFKTQAYLLDVIEKLTTGKDFVQIRTWRTGILVYLQGSQPERTIGWRTDIDGLPIVEQTGLPFASQHQGRMHACVHDFHMTIALGCLERALEEQPKNNLLFLFQPAEENEAGGMLMYEDGAFGDWLPDQFYGLHVRPDLKVGQIATNTHTLFAGTCEVKIRFKGKGGHAAFPHEANDALVAASYFVTQVQSVVSRNVNPIEGAVVTFGVFQAGTTNNVITDTAFLHGTIRALTQDMSLLVQKRVKTVAEGVAAAFDMEVEVELKQGGYLPVENNPALARELMDFFDEKDGIELIDIEPAMTGEDFGYLLSKVDGVMFWLGIDSPYALHHPQMSPKEEVLAIGVAAVSSFLKKKAAE`
output: soluble

input: What does the record list as soluble on expression in E. coli for `ELLKSGKAKDRFEGEENAPVTIVEYASLTCVHCAHFYNDVLPQIRKKYIKTGKVKLIFRDFAFDSRATAGFMLARCAPEDRYFPLIEVLFQKQSEWVWARDAVTPLKKIGLMAGFTDESFNACLKNQSILDEVNASFERGKELGVNATPTFFINGNKYEGAMSVEAFFSVIDSFLKN` ?
output: not soluble

input: Which soluble on expression in E. coli value is on record for `MKLAVLGTGMIVKEVLPVLQKIDGIDLVAILSTVRSLTTAKDLAKAHHMPLATSKYEAILGNEEIDTVYIGLPNHLHFAYAKEALLAGKHVICEKPFTMTAGELDELVVIARKRKLILLEAITNQYLSNMTFIKEHLDQLGDIKIVECNYSQYSSRYDAFKRGDIAPAFNPKMGGGALRDLNIYNIHFVVGLFGRPKTVQYLANVEKGIDTSGMLVMDYEQFKVVCIGAKDCTAEIKSTIQGNKGSLAVLGATNTLPQVQLSLHGHEPQVINHNKHDHRMYEEFVAFRDMIDQRDFEKVNQALEHSRAVMAVLERAVHS` ?
output: not soluble
